Measured values drawn from patent US7273880B2 for this set.

# target_under_test: human Y5 receptor (hNPY-5) (Homo sapiens)
# Construct: expressed in transfected cells; host or cells: mouse fibroblast LM(tk-) cells, e.g. L-hY5-7 (ATCC CRL-11995)
# Sequence (Q15761 whole entry): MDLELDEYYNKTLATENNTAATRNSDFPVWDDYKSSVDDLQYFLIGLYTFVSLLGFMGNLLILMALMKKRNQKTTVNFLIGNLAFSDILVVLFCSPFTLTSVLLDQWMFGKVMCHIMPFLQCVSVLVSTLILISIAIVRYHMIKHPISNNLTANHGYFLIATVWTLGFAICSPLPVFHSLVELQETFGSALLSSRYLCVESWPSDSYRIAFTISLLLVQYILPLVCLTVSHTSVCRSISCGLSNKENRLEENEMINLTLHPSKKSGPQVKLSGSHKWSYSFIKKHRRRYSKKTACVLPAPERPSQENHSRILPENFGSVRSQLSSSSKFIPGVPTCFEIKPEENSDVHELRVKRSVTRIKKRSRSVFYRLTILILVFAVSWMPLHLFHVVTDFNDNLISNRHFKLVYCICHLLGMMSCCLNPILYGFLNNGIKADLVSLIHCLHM
# assay_overview: Radioligand binding to membranes, cloned human Y5 receptor
# details: cloned human NPY Y5 receptor, radioligand competition binding; Tables 1-3; read-out: Ki, nM hNPY-5
property_label: Ki (nM)
Numeric answer only, unit nM assumed.

Worked cases, answers included:
# smiles_data, target_under_test, Ki / nM
rows = [
    ("O=S(=O)(NCCCCCNc1nc2c(s1)CCCc1ccc(F)cc1-2)c1cccc2ccccc12", "human Y5 receptor (hNPY-5) (Homo sapiens)", 19.5),
    ("O=C1OCCN1C[C@H]1CC[C@H](Nc2nc3c(s2)CCCc2ccc(F)cc2-3)CC1", "human Y5 receptor (hNPY-5) (Homo sapiens)", 20),
]

Kindly consider the entry below.
Record lookup: for human Y5 receptor (hNPY-5) (Homo sapiens), what Ki belongs to "Cc1noc(C)c1S(=O)(=O)NC[C@H]1CC[C@H](Nc2nc3c(s2)CCCc2ccc(F)cc2-3)CC1" ?
6.8
